# Test system: HOP-62 NSCLC
# assay_name: NCI-60 one-dose screen, 48 h (100 = growth as untreated, 0 = no growth, -100 = all killed)
# settings: 10 µM unless noted
This is part of a sample that, as a whole, favours compounds with a hit. Of some 83,000 tested, about 20% had one in any assay.
Here the recorded growth is given for each entry.

| compound | uom | growth |
| --- | --- | --- |
| CCN(CCNc1ccc(C)c2sc3ccccc3c(=O)c12)CC(C)(C)O | % | 82.8 |
| Cn1c(I)c(C#C[Si](C)(C)C)c(=O)n(C(=O)c2ccccc2)c1=O | % | 59.1 |
| O=[N+]([O-])c1ccc(-c2cc(-c3ccc(Nc4nc(Nc5ccc(Cl)cc5)nc(Nc5ccc(Cl)cc5)n4)cc3)no2)cc1 | % | 87.4 |
| COc1cccc(-c2nn(-c3ccccc3)cc2-c2ccnc(NCCNC(=O)Nc3ccc(Cl)c(Cl)c3)c2)c1 | % | 5.85 |
| COc1ccc2c(c1)[nH]c(=O)c1c3cccnc3cn21 | % | 38.4 |
| CC(C)(C)OC(=O)Nc1ccc2c(c1)C(NC(=O)Nc1cccc(C#N)c1)CC(C)(C)O2 (stereo not given) | % | 45.8 |
| O=C1c2cccc(NCCN=Cc3cc([N+](=O)[O-])ccc3O)c2C(=O)c2c(NCCN=Cc3cc([N+](=O)[O-])ccc3O)cccc21 | % | 55.4 |
| O=C1OC(c2nc3ccccc3s2)=C/C1=C\c1ccc(O)cc1 | % | 91.8 |
| N#Cc1c(N2CCNCC2)nc2sc3cc(Cl)c(Cl)cc3n2c1=N | % | 98.7 |
| COc1cc(/C=C/C(=O)c2c(C)nc3ccccc3c2C)ccc1OCCCN1CCN(C(=O)c2ccco2)CC1 | % | 91.5 |
| COc1ccc(-c2csc(C3=C(O)CN(CCCN4CCCC4=O)C3=N)n2)cc1OC | % | 90.2 |
| Nc1ccc2c(c1)c(N)nn2C(=O)Nc1ccc(Cc2ccccc2)cc1 | % | 82.7 |
| FC(F)(F)c1cc(Nc2ccc3cc(OCCCN4CCOCC4)ccc3n2)ccc1Cl | % | 12.3 |
| COc1cc(/C=C/C(=O)c2cccc(-n3cc(-c4ccccc4)[nH]c3=O)c2)ccc1O | % | 129 |
| CN1CCN(C(=O)c2c3c(n4ccccc24)C(=O)c2ncccc2C3=O)CC1 | % | 27.3 |
| Cn1c(=O)c2[nH]c(NN)nc2n(C)c1=O | % | 120 |
| O=C(NCCCNc1cc(-c2cn(-c3ccccc3)nc2-c2cccc(O)c2)ccn1)c1ccccc1 | % | 47 |
| C[n+]1cc2c3c(ccc2c2ccc4cc5c(cc4c21)OCO5)OCO3 | % | -83.8 |
| Cc1ccc(Cc2cnc(NC(=O)c3ccc4noc(-c5ccccc5)c4c3)s2)cc1 | % | 64.8 |
| Cc1cc(C)c(-c2c(C)cc(C)cc2CBr)c(CBr)c1 | % | 84.6 |

----------
Quick reference: growth of the listed items.
# System: SNB-75 CNS
# assay_name: NCI-60 one-dose screen, 48 h (100 = growth as untreated, 0 = no growth, -100 = all killed)
# settings: 10 µM unless noted
This is part of a sample that, as a whole, favours compounds with a hit. Of some 83,000 tested, about 20% had one in any assay.
assay_readout: growth (%)

| smiles | data_value |
| --- | --- |
| NS(=O)(=O)c1cnccc1Oc1cccc2cccnc12 | 89.6 |
| C=C(C)[C@@H]1CC[C@]2(C(=O)NC3CCCCC3)CC[C@]3(C)[C@H](CC[C@@H]4[C@@]5(C)CCC(=O)C(C)(C)[C@@H]5CC[C@]43C)[C@@H]12 | 85.6 |
| c1c[nH]c(CNC2CCCCC2)c1 | 108 |
| CCCCn1c(=O)c2c(nc3n2CCCN3CCc2ccc(OCC(=O)NCCN(CC)CC)cc2)n(CCCC)c1=O | 44.6 |
| COc1ccc(NC(=O)CSc2nnc(-c3cc(-c4ccccc4)nc4ccccc34)n2-c2ccccc2)cc1 | 79.3 |
